Data origin, for the record: PubChem BioAssay (NCI)

# Tested on: UO-31 renal
# assay procedure: NCI tumour cell line growth inhibition, 48 h
recorded metric: TGI

Solved entries (count: 4):
| molecule | TGI |
| --- | --- |
| COC(=O)C1=CC(=O)OC1(OO)c1ccccc1 (configuration not stated) | > 100 µM |
| C[n+]1cc(C(O)c2ccc3c(c2)OCO3)c2ccccc2c1 (configuration not stated) | 92.5 µM |
| COc1ccc2ncn(-c3cc(O[C@H](C)c4ccccc4Cl)c(C(N)=O)s3)c2c1 | 17 µM |
| Cc1ccc([C@H]2CC(=O)C[C@H](c3ccc(C)cc3)C23C(=O)c2ccccc2C3=O)cc1 | > 100 µM |

Req: Lab note: need TGI with UO-31 renal for entry COc1ccc2[nH]c3c4c(ccc3c2c1)C(=O)C=CC4=O , please look it up.
Resp: 28.2 µM

Req: How about CN(C)C(=S)/N=c1\ss/c(=N\C(=S)N(C)C)n1-c1ccc(Cl)c(Cl)c1 ?
Resp: > 100 µM

Req: How about Nc1ccc2[nH]c3c(-c4ccccc4)nccc3c2c1 ?
Resp: > 100 µM

Req: How about COC(=O)OCC1OC(N2C(=O)NC(=O)C(Br)C2N=[N+]=[N-])CC1OC(=O)OC (configuration not stated) ?
Resp: > 100 µM

Req: How about O=c1[nH]/c(=C/c2ccc(OCc3ccccc3)cn2)c(=O)[nH]/c1=C/c1ccc(O)cc1 ?
Resp: 1.4 µM

Req: How about CC1Cn2c(nc3ccccc32)NC1=O (configuration not stated) ?
Resp: > 100 µM

Req: How about CCn1nc2c3c(ncn3C(C)(C)O2)c1=O ?
Resp: > 100 µM

Req: How about Oc1cc(C2OCCCO2)cc(O)c1O ?
Resp: > 100 µM

Req: How about NC(N)=NCCCCCNc1noc(Cc2c[nH]c3cc(Br)ccc23)n1 ?
Resp: > 100 µM

Req: How about N#C/C(=C\n1ccc(=O)[nH]c1=S)C(N)=O ?
Resp: > 100 µM

Req: How about CCCCCC(=O)NC(=S)Nc1nn[nH]n1 ?
Resp: > 100 µM

Req: How about COc1ccc(-c2ccc(/C=N/n3c(C)n[nH]c3=S)o2)c([N+](=O)[O-])c1 ?
Resp: > 100 µM

Req: How about COc1ccc(C(=O)COc2cccc(/C=C3\Oc4ccc5ccccc5c4C3=O)c2)cc1 ?
Resp: 23.2 µM

Req: How about Cc1cc(C)cc(Nc2cc(=O)[nH]c(=O)[nH]2)c1 ?
Resp: > 100 µM

Req: How about Cc1ccc(S(=O)(=O)OCC(=O)O)cc1 ?
Resp: > 100 µM

Req: How about CN(O)C(=O)c1cccc(Cl)c1 ?
Resp: > 100 µM

Req: How about O=C(OCC1OC2OC(c3ccccc3)(n3ccc4c([N+](=O)[O-])ccnc43)OC2C1OC(=O)c1ccccc1)c1ccccc1 (configuration not stated) ?
Resp: > 100 µM

Req: How about Cc1ccc(C2(O)CC(c3ccc([N+](=O)[O-])o3)=NN2C(=O)COc2ccc(Cl)cc2)cc1 (configuration not stated) ?
Resp: 16.2 µM
